Where these numbers come from: paper PMC5346138

EXPERIMENTAL TARGET: T1, SsoSSB (single-stranded DNA-binding protein) (Sulfolobus solfataricus, UniProt Q97W73 1-148)
T1 sequence: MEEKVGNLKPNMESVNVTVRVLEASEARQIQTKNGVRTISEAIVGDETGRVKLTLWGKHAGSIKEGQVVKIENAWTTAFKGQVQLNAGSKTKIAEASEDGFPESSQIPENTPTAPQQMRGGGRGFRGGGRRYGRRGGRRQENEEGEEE
TEST METHOD NOTES: ITC; apparent Kd, 50 C; text says 21U, Fig. 1 legend says poly-rA; ITC: 20 mM MES pH 6.5, 100 mM K-glutamate, 1 mM MgCl2, 50 C; PIFE: 50 mM Tris-HCl pH 8.0, 10 mM KCl; smFRET: same buffer plus Trolox and oxygen scavenger, room
TEST PARAMETERS: protein: recombinant
ATTRIBUTE MEASURED: pKd
pKd is defined as minus the log10 of a concentration measured in mol/L.

Query: Which value of pKd has been reported for UUUUUUUUUUUUUUUUUUUUU (ssRNA) [R21U (21U RNA)] in the records?
Response: 7.03
